Target: human recombinant D2 receptor (Homo sapiens (Human), UniProt P14416)
Sequence (P14416 whole entry): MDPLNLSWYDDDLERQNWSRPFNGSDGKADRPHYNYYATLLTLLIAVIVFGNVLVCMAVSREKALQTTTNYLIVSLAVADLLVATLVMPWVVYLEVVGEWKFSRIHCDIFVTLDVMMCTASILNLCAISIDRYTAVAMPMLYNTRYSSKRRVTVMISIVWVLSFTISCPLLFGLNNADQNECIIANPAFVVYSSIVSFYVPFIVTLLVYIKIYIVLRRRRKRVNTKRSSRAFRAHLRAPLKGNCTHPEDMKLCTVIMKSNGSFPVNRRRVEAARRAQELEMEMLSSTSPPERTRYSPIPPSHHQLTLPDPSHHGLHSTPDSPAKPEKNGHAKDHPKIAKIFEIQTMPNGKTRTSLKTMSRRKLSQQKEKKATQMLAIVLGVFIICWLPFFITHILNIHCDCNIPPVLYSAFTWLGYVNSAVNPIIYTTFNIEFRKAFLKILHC
Experiment: Test of binding inhibition for dopamine D2 receptor
Conditions: Jump-In HEK cell membranes, 1.2 nM [3H]-Methylspiperone, 120 min at 25° C.; read-out: hD2_Ki
Description: Test Example 2: Test of Binding Inhibition for Dopamine D2 Receptor (Experimental Conditions) Cell membranes: Jump-In HEK cell membranes expressing human recombinant D2 receptor (2 μg/well) […] 225 nL of the solutions of the non-specific ligand or the compounds of the present invention at each concentration (in case of vehicle, final concentration 0.3% DMSO) were added in each well of a 384-well white/clear bottom microplate (3706, Corning). […] The Ki values were calculated from dose-response curves. […]
Answer each item with its documented pKi.
Scale explanation: pKi corresponds to minus log10 of a concentration expressed in moles per litre.

Using the record for O=C(N[C@H]1CC[C@H](CCN2CCC(c3nocc3-c3ccccc3)CC2)CC1)c1cccc2ncccc12 [Compound I-002] , report its pKi.
7.49

Input CN1Cc2c(C(=O)N[C@H]3CC[C@H](CCN4C[C@@H]5C[C@]5(c5cc(C(C)(F)F)on5)C4)CC3)cccc2C1=O [Compound I-045]
7.07

Input Cn1cc2c(C(=O)N[C@H]3CC[C@H](CCN4CCC(c5nocc5C(C)(F)F)CC4)CC3)cccc2n1 [Compound I-022]
6.77

Input Cn1cc(CC(=O)N[C@H]2CC[C@H](CCN3C[C@@H]4C[C@]4(c4cc(C5CC5)on4)C3)CC2)cn1 [II-3]
6.14

Input CCc1cc([C@]23C[C@H]2CN(CC[C@H]2CC[C@H](NC(=O)Cc4noc(C)n4)CC2)C3)no1 [Compound I-058]
6.10

Input CCc1cc([C@]23C[C@H]2CN(CC[C@H]2CC[C@H](NC(=O)c4ccc(F)c5nn(C)cc45)CC2)C3)no1 [Compound I-050]
6.70

Input CCc1cc([C@]23C[C@H]2CN(CC[C@H]2CC[C@H](NC(=O)/C=C/c4cnc(C)nc4)CC2)C3)no1 [Compound I-051]
6.42

Reference source: patent US11447484B2
